Tested on: Leishmania amazonensis
Assay: Antileishmanial activity against Leishmania amazonensis MHOM/77BR/LTB0016 amastigotes infected in mouse peritoneal macrophages after 48 hrs by Giemsa staining-based assay
Format: functional, organism-based
Details: MHOM/77BR/LTB0016, 48 h
# Lookup of reported IC50 keyed by entry

COMPOUND: O=C(O)/C=C/c1ccc(O)c(O)c1 [CAFFEIC ACID]
IC50: 16 µM

COMPOUND: O=C(O)/C=C/c1ccccc1O [O-COUMARIC ACID]
IC50: 13.8 µM

COMPOUND: C[C@@H]1O[C@@H](OC[C@H]2O[C@@H](Oc3c(-c4ccc(O)c(O)c4)oc4cc(O)cc(O)c4c3=O)[C@H](O)[C@@H](O)[C@@H]2O)[C@H](O)[C@H](O)[C@H]1O [RUTIN]
IC50: 4.4 µM

COMPOUND: COc1cc(/C=C/C(=O)O)ccc1O [FERULATE]
IC50: 7.9 µM

###

Target: Dihydroorotate dehydrogenase (fumarate) (Leishmania major)
Assay: Binding affinity to Leishmania major DHODH assessed as change in melting temperature at 500 uM by differential scanning fluorimetry-based ThermoFMN assay

COMPOUND: O=C(O)c1cc(=O)[nH]c(=O)[nH]1
SUBJECT OF TEST: Dihydroorotate dehydrogenase (fumarate) (Leishmania major)
ΔTm, °C: 4.32
//
COMPOUND: C=C1C(=O)O[C@@H]2C[C@H](C)[C@@]3(O)C[C@H](O)[C@@](C)(C[C@@H](OC(=O)C(C)C)[C@@H]12)O3
SUBJECT OF TEST: Dihydroorotate dehydrogenase (fumarate) (Leishmania major)
ΔTm, °C: -0.32
//
COMPOUND: CC(=O)OCC1=C2[C@@H](OC(C)=O)C[C@@](C)(OC(C)=O)C(=O)CC[C@@]3(C)O[C@@H]3[C@H]2OC1=O
SUBJECT OF TEST: Dihydroorotate dehydrogenase (fumarate) (Leishmania major)
ΔTm, °C: -0.41
//
COMPOUND: C=C1C(=O)O[C@@H]2/C=C(\C)CC/C=C(/C=O)[C@@H](O)[C@@H](OC(=O)/C(C)=C\C)[C@@H]12
SUBJECT OF TEST: Dihydroorotate dehydrogenase (fumarate) (Leishmania major)
ΔTm, °C: -1.07

###

Target: Dihydroorotate dehydrogenase (fumarate) (Leishmania major) (UniProt Q4QEW7)
Assay: Binding affinity to Leishmania major DHODH assessed as change in melting temperature at 100 uM by SYPRO orange dye-based differential scanning fluorimetry
# Lookup of reported ΔTm keyed by entry

COMPOUND: C=C1C(=O)O[C@@H]2/C=C(/C)C3=CC(=O)[C@@](C)(C[C@@H](OC(=O)/C(C)=C/C)[C@@H]12)O3 [ATRIPLICIOLIDTIGLATE]
ΔTm, °C: -0.47

COMPOUND: CC(=O)OCC1=C2[C@@H](OC(C)=O)C[C@@](C)(OC(C)=O)C(=O)CC[C@@]3(C)O[C@@H]3[C@H]2OC1=O
ΔTm, °C: -0.27

COMPOUND: CC[C@@H](C)[C@@]1(O)O[C@H]2C[C@@]3(C)OC(=CC3=O)/C(CO)=C\[C@H]3OC(=O)[C@@]1(C)[C@H]23
ΔTm, °C: -0.13

COMPOUND: C=C(C)C(=O)O[C@H]1C[C@@]2(C)OC(=CC2=O)/C(CO)=C\[C@H]2OC(=O)C(=C)[C@H]12 [GOIAZENSOLIDE]
ΔTm, °C: -0.73

COMPOUND: C=C1C(=O)O[C@@H]2/C=C(\C)CC/C=C(/C=O)[C@@H](O)[C@@H](OC(=O)/C(C)=C\C)[C@@H]12
ΔTm, °C: -0.09

COMPOUND: CC[C@@H](C)[C@@]1(O)O[C@H]2C[C@@]3(C)OC(=CC3=O)/C(COC(C)=O)=C\[C@H]3OC(=O)[C@@]1(C)[C@H]23
ΔTm, °C: -0.86

COMPOUND: C=C1C(=O)O[C@@H]2C[C@H](C)[C@@]3(O)C[C@H](O)[C@@](C)(C[C@@H](OC(=O)C(C)C)[C@@H]12)O3 [TAGITININ A]
ΔTm, °C: -0.07

###

Molecular target: Dihydroorotate dehydrogenase (fumarate) (Leishmania major) (UniProt Q4QEW7)
Sequence (whole entry): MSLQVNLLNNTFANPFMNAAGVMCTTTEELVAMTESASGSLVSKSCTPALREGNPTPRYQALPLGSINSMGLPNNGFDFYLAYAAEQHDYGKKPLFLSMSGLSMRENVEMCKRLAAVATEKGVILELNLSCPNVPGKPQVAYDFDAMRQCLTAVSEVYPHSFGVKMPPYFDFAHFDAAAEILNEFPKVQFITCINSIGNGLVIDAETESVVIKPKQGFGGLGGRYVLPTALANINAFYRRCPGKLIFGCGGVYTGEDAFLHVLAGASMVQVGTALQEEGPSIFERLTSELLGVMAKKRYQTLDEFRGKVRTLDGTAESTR
Assay: Binding affinity to Leishmania major DHODH assessed as change in melting temperature at 100 uM by differential scanning fluorimetry-based ThermoFMN assay
The label satisfied is reserved for ΔTm strictly under -0.3 °C; not satisfied covers values equal to or above it.

COMPOUND: C=C1C(=O)O[C@@H]2C[C@H](C)[C@@]3(O)C[C@H](O)[C@@](C)(C[C@@H](OC(=O)C(C)C)[C@@H]12)O3 [TAGITININ A]
LABEL VALUE: not satisfied

COMPOUND: C=C(C)C(=O)O[C@H]1C[C@@]2(C)OC(=CC2=O)/C(CO)=C\[C@H]2OC(=O)C(=C)[C@H]12 [GOIAZENSOLIDE]
LABEL VALUE: satisfied

COMPOUND: C=C1C(=O)O[C@@H]2[C@H]3C(C)=CC(=O)C3=C(C)C[C@@H](OC(=O)[C@]3(C)O[C@@H]3C)[C@@H]12
LABEL VALUE: not satisfied

COMPOUND: O=C(O)c1cc(=O)[nH]c(=O)[nH]1
LABEL VALUE: not satisfied

COMPOUND: CC(=O)OCC1=C2[C@@H](OC(C)=O)C[C@@](C)(OC(C)=O)C(=O)CC[C@@]3(C)O[C@@H]3[C@H]2OC1=O
LABEL VALUE: not satisfied

COMPOUND: C[C@@H]1CC[C@H]2[C@@H](C)C(=O)O[C@@H]3O[C@@]4(C)CC[C@@H]1[C@]32OO4 [ARTEMISININ]
LABEL VALUE: not satisfied

COMPOUND: CC[C@@H](C)[C@@]1(O)O[C@H]2C[C@@]3(C)OC(=CC3=O)/C(CO)=C\[C@H]3OC(=O)[C@@]1(C)[C@H]23
LABEL VALUE: not satisfied

COMPOUND: CC[C@@H](C)[C@@]1(O)O[C@H]2C[C@@]3(C)OC(=CC3=O)/C(COC(C)=O)=C\[C@H]3OC(=O)[C@@]1(C)[C@H]23
LABEL VALUE: satisfied

COMPOUND: C=C1C(=O)O[C@@H]2/C=C(/C)C3=CC(=O)[C@@](C)(C[C@@H](OC(=O)/C(C)=C/C)[C@@H]12)O3 [ATRIPLICIOLIDTIGLATE]
LABEL VALUE: satisfied

COMPOUND: C=C1C(=O)O[C@@H]2/C=C(\C)CC/C=C(/C=O)[C@@H](O)[C@@H](OC(=O)/C(C)=C\C)[C@@H]12
LABEL VALUE: satisfied

COMPOUND: C=C(C)C(=O)O[C@H]1C[C@@]2(C)OC(=CC2=O)[C@@H](C)C[C@H]2OC(=O)C(=C)[C@H]12
LABEL VALUE: not satisfied

###

# Lookup of reported ΔTm keyed by entry
Biological target: Dihydroorotate dehydrogenase (fumarate) (Leishmania major) (UniProt Q4QEW7)
Assay: Binding affinity to Leishmania major DHODH assessed as change in melting temperature at 500 uM by differential scanning fluorimetry-based ThermoFMN assay

COMPOUND: CC[C@@H](C)[C@@]1(O)O[C@H]2C[C@@]3(C)OC(=CC3=O)/C(CO)=C\[C@H]3OC(=O)[C@@]1(C)[C@H]23
ΔTm (°C): -0.32
--
COMPOUND: CC[C@@H](C)[C@@]1(O)O[C@H]2C[C@@]3(C)OC(=CC3=O)/C(COC(C)=O)=C\[C@H]3OC(=O)[C@@]1(C)[C@H]23
ΔTm (°C): -0.65
--
COMPOUND: C[C@@H]1CC[C@H]2[C@@H](C)C(=O)O[C@@H]3O[C@@]4(C)CC[C@@H]1[C@]32OO4
ΔTm (°C): -0.35

###

Biological target: Dihydroorotate dehydrogenase (fumarate) (Leishmania major)
Assay: Inhibition of recombinant oligo-histidine-tagged Leishmania major DHODH expressed in Escherichia coli BL21(DE3) cells using DHO as substrate measured after 60 secs
Conditions: read-out: IC50
READOUT KIND: IC50 (µM)

COMPOUND: O=c1c(O)c(-c2ccccc2)oc2cc(O)cc(O)c12
SUBJECT OF TEST: Dihydroorotate dehydrogenase (fumarate) (Leishmania major)
UNIT TEXT: µM
MEASURED VALUE: 481
//
COMPOUND: C=C(C)C(=O)O[C@H]1C[C@@]2(C)OC(=CC2=O)/C(C)=C\[C@H]2OC(=O)C(=C)[C@H]12
SUBJECT OF TEST: Dihydroorotate dehydrogenase (fumarate) (Leishmania major)
UNIT TEXT: µM
MEASURED VALUE: 278
//
COMPOUND: C=C1[C@@H]2CC[C@H]3[C@]4(C)CCC[C@@](C)(C(=O)O)[C@H]4CC[C@]3(C2)[C@H]1OC(=O)/C=C/c1ccccc1
SUBJECT OF TEST: Dihydroorotate dehydrogenase (fumarate) (Leishmania major)
UNIT TEXT: µM
MEASURED VALUE: 1420
//
COMPOUND: C=C1CC[C@H]2[C@@](C)(CCC[C@@]2(C)C(=O)O)[C@@H]1CCc1ccoc1
SUBJECT OF TEST: Dihydroorotate dehydrogenase (fumarate) (Leishmania major)
UNIT TEXT: µM
MEASURED VALUE: 2620
